- Tested on: IRF pathway in THP1-Dual™ cells, THP-1 (HAQ)
- methodSummary: Reporter gene expression assay in THP-1 cells (THP1-Dual, IRF pathway Lucia luciferase reporter, 2′,3′-cGAMP stimulation)
- Format: cell-based, human
- cond: Homo sapiens; THP1-Dual cells preincubated with compound 10 minutes, stimulation with 5 μM 2′,3′-cGAMP for 20 hr, QUANTI-Luc readout of the supernatant; read-out: THP-1 (HAQ) Activity (IC50 value range)
endpoint: IC50

[in] Form: Entry = CC(O)Cn1cc(-c2ccc3[nH]cc(NC(=O)Nc4ccc5c(c4)N(Cc4ccccc4)C(=O)CS5)c3c2)cn1 (centres unmarked) [Example 68] | System = IRF pathway in THP1-Dual™ cells, THP-1 (HAQ) | IC50 = ____
[out] 1000 to 10000 nM

[in] Now give it for O=C(Nc1ccc2c(c1)SCCN2C(=O)c1ccccc1)Nc1c[nH]c2ccccc12 [Example 80] too.
[out] < 1000 nM

[in] Now give it for O=C(Nc1ccc2c(c1)N(Cc1ccccc1)C(=O)CO2)Nc1c[nH]c2ccccc12 [Example 4] too.
[out] < 1000 nM

[in] Now give it for O=C(Nc1ccc2c(c1)N(Cc1c(F)cccc1Cl)CCS2)Nc1c[nH]c2ccccc12 [Example 75] too.
[out] < 1000 nM

[in] Now give it for N#Cc1ccccc1CN1CCSc2cc(NC(=O)Nc3c[nH]c4ccccc34)ccc21 [Example 87] too.
[out] < 1000 nM

[in] Now give it for N#Cc1ccc2[nH]cc(NC(=O)Nc3ccc4c(c3)N(Cc3ccccc3)C(=O)CS4)c2c1 [Example 37] too.
[out] < 1000 nM

[in] Now give it for O=C(Nc1ccc2c(c1)N(Cc1c(F)cccc1Cl)C(=O)CS2)Nc1c[nH]c2ccc(Cl)cc12 [Example 28] too.
[out] 1000 to 10000 nM

[in] Now give it for COc1cccc(-c2ccc3[nH]cc(NC(=O)Nc4ccc5c(c4)N(Cc4ccccc4)C(=O)CS5)c3c2)c1 [Example 53] too.
[out] < 1000 nM

====

- Tested on: IRF pathway in THP1-Dual™ cells, THP-1 (HAQ)
- methodSummary: Reporter gene expression assay in THP-1 cells (THP1-Dual, IRF pathway Lucia luciferase reporter, 2′,3′-cGAMP stimulation)
- Format: cell-based, human
- cond: Homo sapiens; THP1-Dual cells preincubated with compound 10 minutes, stimulation with 5 μM 2′,3′-cGAMP for 20 hr, QUANTI-Luc readout of the supernatant; read-out: THP-1 (HAQ) Activity (IC50 value range)
pIC50: −log10 of the molar value.
Consider the following compounds; for each one, report its pIC50.

[in] # lookup: pIC50 of O=C(Nc1ccc2c(c1)N(Cc1ccccc1)C(=O)CS2)Nc1c[nH]c2ccc(-c3cnsc3)cc12
[out] > 6.00

[in] Now give it for O=C(Nc1ccc2c(c1)N(Cc1ccccc1)C(=O)CS2)Nc1c[nH]c2ccc(-c3cc(F)cc(F)c3)cc12 too.
[out] > 6.00

[in] Now give it for O=C(Nc1ccc2c(c1)N(Cc1ccccc1)C(=O)CS2)Nc1c[nH]c2ccc(-c3cncc(CO)c3)cc12 too.
[out] 5.00 to 6.00

[in] Now give it for CCn1cc(-c2ccc3[nH]cc(NC(=O)Nc4ccc5c(c4)N(Cc4ccccc4)C(=O)CS5)c3c2)cn1 too.
[out] > 6.00

[in] Now give it for NC(=O)c1cccc(-c2ccc3[nH]cc(NC(=O)Nc4ccc5c(c4)N(Cc4ccccc4)C(=O)CS5)c3c2)c1 too.
[out] 5.00 to 6.00

====

Consider the following molecules; for each one, report its pIC50.
- Tested on: IRF pathway in THP1-Dual™ cells, THP-1 (HAQ)
- methodSummary: Reporter gene expression assay in THP-1 cells (THP1-Dual, IRF pathway Lucia luciferase reporter, 2′,3′-cGAMP stimulation)
- Format: cell-based, human
- cond: Homo sapiens; THP1-Dual cells preincubated with compound 10 minutes, stimulation with 5 μM 2′,3′-cGAMP for 20 hr, QUANTI-Luc readout of the supernatant; read-out: THP-1 (HAQ) Activity (IC50 value range)
- Text: Reporter Gene Expression Assay in THP-1 Cells THP1-Dual™ cells (Invivogen) were derived from the human THP-1 monocyte cell line by stable integration of two inducible reporter constructs. […] After 20 hr of stimulation the supernatant was removed and the IRF pathway reporter protein was readily measured in the cell culture supernatant using QUANTI-Luc™ (Invivogen), a luciferase detection reagent on a Spectramax i3X luminometer.
pIC50: −log10 of the molar value.

[in] # lookup: pIC50 of COCCn1cc(-c2ccc3[nH]cc(NC(=O)Nc4ccc5c(c4)N(Cc4ccccc4)C(=O)CS5)c3c2)cn1 [Example 49]
[out] 5.00 to 6.00

[in] Now give it for O=C(Nc1ccc2c(c1)N(Cc1ccccn1)C(=O)CS2)Nc1c[nH]c2ccccc12 [Example 19] too.
[out] 5.00 to 6.00

[in] Now give it for O=C(Nc1ccc2c(c1)N(Cc1ccccc1)C(=O)CS2)Nc1c[nH]c2ccc(-c3cnco3)cc12 [Example 39] too.
[out] > 6.00

[in] Now give it for CC1Sc2ccc(NC(=O)Nc3c[nH]c4ccccc34)cc2N(Cc2c(F)cccc2Cl)C1=O (stereo not shown) [Example 27] too.
[out] > 6.00

[in] Now give it for O=C(Nc1ccc2c(c1)N(Cc1c(F)ccc(O)c1Cl)C(=O)CS2)Nc1c[nH]c2ccccc12 [Example 34] too.
[out] > 6.00

[in] Now give it for Cc1cc(CN2CCSc3ccc(NC(=O)Nc4c[nH]c5ccc(F)cc45)cc32)on1 [Example 110] too.
[out] > 6.00

[in] Now give it for CC1CN(Cc2ccccc2)c2cc(NC(=O)Nc3c[nH]c4ccccc34)ccc2S1 (stereo not shown) [Example 83] too.
[out] > 6.00

[in] Now give it for O=C(Nc1ccc2c(c1)N(Cc1ccccc1)C(=O)CS2)Nc1c[nH]c2ncc(Cl)cc12 [Example 5] too.
[out] > 6.00

[in] Now give it for O=C(Nc1ccc2c(c1)N(Cc1ccccc1)C(=O)CS2)Nc1c[nH]c2ccc(-c3cn[nH]c3)cc12 [Example 44] too.
[out] 5.00 to 6.00

[in] Now give it for CC1CN(C(=O)c2ccccc2)c2cc(NC(=O)Nc3c[nH]c4ccccc34)ccc2S1 (stereo not shown) [Example 70] too.
[out] > 6.00

[in] Now give it for O=C(Nc1ccc2c(c1)N(Cc1ccccc1)C(=O)CS2)Nc1c[nH]c2ccncc12 [Example 14] too.
[out] 5.00 to 6.00

[in] Now give it for C[C@H]1c2ccc(NC(=O)Nc3c[nH]c4ccccc34)cc2N(Cc2ccccc2)C(=O)N1C [Example 107] too.
[out] > 6.00

[in] Now give it for CN1C(=O)CSc2ccc(NC(=O)Nc3c[nH]c4ccccc34)cc21 [Example 16] too.
[out] > 6.00

[in] Now give it for O=C(Nc1ccc2c(c1)N(Cc1ccccc1)C(=O)CS2)Nc1c[nH]c2ccc(-c3cccc(C(F)(F)F)c3)cc12 [Example 67] too.
[out] > 6.00

[in] Now give it for O=C(Nc1ccc2c(c1)OCC(=O)N2Cc1ccccc1)Nc1c[nH]c2ccccc12 [Example 3] too.
[out] > 6.00

[in] Now give it for O=C(Nc1ccc2c(c1)N(Cc1ccccc1)C(=O)CS2)Nc1c[nH]c2ccc(-c3cccnc3)cc12 [Example 55] too.
[out] > 6.00

====

Consider the following molecules; for each one, report its pIC50.
- System: IRF pathway in THP1-Dual™ cells, THP-1 (HAQ)
- methodSummary: Reporter gene expression assay in THP-1 cells (THP1-Dual, IRF pathway Lucia luciferase reporter, 2′,3′-cGAMP stimulation)
- Assay type: cell-based, human
- cond: Homo sapiens; THP1-Dual cells preincubated with compound 10 minutes, stimulation with 5 μM 2′,3′-cGAMP for 20 hr, QUANTI-Luc readout of the supernatant; read-out: THP-1 (HAQ) Activity (IC50 value range)
pIC50: −log10 of the molar value.

[in] # lookup: pIC50 of O=C(Nc1ccc2c(c1)N(Cc1cc(F)cc(Cl)c1)CCS2)Nc1c[nH]c2ccc(F)cc12
[out] > 6.00

[in] Now give it for O=C(Nc1ccc2c(c1)SCCN2Cc1ccccn1)Nc1c[nH]c2ccccc12 too.
[out] > 6.00

[in] Now give it for O=C(Nc1ccc2c(c1)N(Cc1ccccc1)C(=O)CS2)Nc1c[nH]c2ccc(Cl)cc12 too.
[out] > 6.00

[in] Now give it for O=C(Nc1ccc2c(c1)N(Cc1ccccc1)C(=O)CS2)Nc1c[nH]c2ccc(-c3cnn(C(F)F)c3)cc12 too.
[out] > 6.00

[in] Now give it for O=C(Nc1ccc2c(c1)N(Cc1ccccc1)C(=O)CS2)Nc1c[nH]c2ccc(-c3cnoc3)cc12 too.
[out] > 6.00

[in] Now give it for O=C(Nc1ccc2c(c1)N(Cc1cc(F)cc(F)c1)CCO2)Nc1c[nH]c2ccccc12 too.
[out] > 6.00

[in] Now give it for NC(=O)c1ccccc1CN1CCSc2cc(NC(=O)Nc3c[nH]c4ccccc34)ccc21 too.
[out] > 6.00

[in] Now give it for O=C(Nc1ccc2c(c1)N(Cc1cc(F)cc(F)c1)C(=O)CS2)Nc1c[nH]c2ccc(F)cc12 too.
[out] > 6.00

Sourced from patent US20260159511A1
